# target.entity: HDAC8 (Homo sapiens (Human), UniProt Q9BY41)
# Sequence (Q9BY41 whole entry): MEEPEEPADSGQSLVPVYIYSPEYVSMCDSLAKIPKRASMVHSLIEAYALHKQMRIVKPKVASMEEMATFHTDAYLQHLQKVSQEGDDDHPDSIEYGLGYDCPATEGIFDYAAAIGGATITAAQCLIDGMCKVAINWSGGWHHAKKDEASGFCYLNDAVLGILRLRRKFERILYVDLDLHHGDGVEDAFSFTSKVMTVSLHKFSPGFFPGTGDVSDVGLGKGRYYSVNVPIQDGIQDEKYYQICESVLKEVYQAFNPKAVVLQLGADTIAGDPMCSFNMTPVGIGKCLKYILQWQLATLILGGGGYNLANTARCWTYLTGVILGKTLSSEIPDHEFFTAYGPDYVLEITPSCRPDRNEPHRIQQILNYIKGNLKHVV
Entries annotated with measured IC50
Write the figure, then the unit, nothing else.

A selection of reference data follows.
compound: O=C(Cc1cnccn1)N(Cc1ccc(-c2noc(C(F)(F)F)n2)cc1)c1cccc(C(F)(F)F)c1 [Example 94]
IC50: 2.3 µM
//
compound: FC(F)(F)c1nc(-c2ccc(N3CCOC[C@H]3c3ccccc3)nc2)no1 [Example 144]
IC50: 2.7 µM
//
compound: O=C1CCc2cccnc2N1Cc1ccc(-c2noc(C(F)(F)F)n2)cn1 [Example 330]
IC50: 18 µM

Continue with the next compound.
State its IC50 on HDAC8 (Homo sapiens (Human), UniProt Q9BY41): FC(F)(F)c1nc(-c2ccc(COc3ncccn3)cc2)no1 [Example 457] 0.73 µM
